Cited source for all entries: PubChem BioAssay AID1159580

- ASSAY_NOTES: chemical genetic growth profiling, strain panel (AID 1159580);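 note: tested at 20 µM; growth read once vehicle control cultures reached saturation at 30 °C; 1 = growth at the plate median or of vehicle wells; lower values mean less growth of the strain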
- PROTOCOL_CONDITIONS: S. cerevisiae deletion strains, growth OD, locus YNL153C, strain GIM3
Screen size: about 5,500 compounds; about 2,000 (36%) were called active. Not shown: some 18% with an inconclusive outcome. Cut-off read from the data, not from the text of the source: active = normalized growth mostly below about 0.91 (no sharp cut-off); inconclusive = no clear call, values can overlap the other calls; inactive = mostly above about 0.92. The list shows a part of the results.
Outcome field: choose from label 1 (active), label 0 (inactive)

# example entries with known answers
COMPOUND: C[C@H](CCC(=O)O)[C@H]1CCC2C3C(CC[C@@]21C)[C@@]1(C)CC[C@@H](O)C[C@H]1C[C@H]3O (some centres undefined)
CATEGORY: label 0
//
COMPOUND: O=C(O)CCCOc1ccc(Cl)cc1Cl
CATEGORY: label 0
//
COMPOUND: NC(N)=NCCC[C@@H](NC(=O)[C@@H](N)Cc1ccc(O)cc1)C(=O)O
CATEGORY: label 0

*Q* What classification did O=[N+]([O-])c1cccc(-c2csc(Nc3ccccc3Cl)n2)c1 end up with in this test?
*A* label 0

*Q* # fetch the recorded call for CC(=O)Nc1ccc(S(=O)(=O)NC2Cc3ccccc3C2)cc1 here
*A* label 0

---

- ASSAY_NOTES: chemical genetic growth profiling, strain panel (AID 1159580);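 note: tested at 20 µM; growth read once vehicle control cultures reached saturation at 30 °C; 1 = growth at the plate median or of vehicle wells; lower values mean less growth of the strain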
- PROTOCOL_CONDITIONS: S. cerevisiae deletion strains, growth OD, locus YER111C, strain swi4, hits give low values
In all, about 5,500 compounds went through this assay and about 2,000 (36%) were called active. Not shown: some 18% with an inconclusive outcome. The list shows a part of the results.
Give measured normalized growth for each item. Keep answers brief.
One number for each entry.

MOLECULE: NCC(CC(=O)O)c1ccc(Cl)cc1 (centres undefined)
normalized growth: 0.989

MOLECULE: CN(C)CCOC(=O)C(c1ccccc1)C1(O)CCCC1 (centres undefined)
normalized growth: 0.971

MOLECULE: C[C@@H]1CC2C3CCC4=CC(=O)C=C[C@]4(C)[C@@]3(F)[C@@H](O)C[C@]2(C)[C@H]1C(=O)CO (some centres undefined)
normalized growth: 0.982

Now, please, on to the next molecule.
*Q* // returns reported normalized growth for input C[C@@H]1CC2C3C[C@H](F)C4=CC(=O)C=C[C@]4(C)[C@@]3(F)[C@@H](O)C[C@]2(C)[C@@]1(O)C(=O)COC(=O)C(C)(C)C (some centres undefined)
*A* 0.999

---

- ASSAY_NOTES: chemical genetic growth profiling, strain panel (AID 1159580);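 note: tested at 20 µM; growth read once vehicle control cultures reached saturation at 30 °C; 1 = growth at the plate median or of vehicle wells; lower values mean less growth of the strain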
- PROTOCOL_CONDITIONS: S. cerevisiae deletion strains, growth OD, locus YMR001C, strain CDC5
Hit rate of the full screen: of about 5,500 compounds, about 2,000 (36%) were called active. About 18% were inconclusive and are not listed. Cut-off read from the data, not from the text of the source: active = normalized growth mostly below about 0.91 (no sharp cut-off); inconclusive = no clear call, values can overlap the other calls; inactive = mostly above about 0.92. The list shows a part of the results.
// one of yes (1) for active, no (0) for inactive, no free text

Consider the worked cases shown below.
MOLECULE: COc1cc(CC/C(C)=N\O)ccc1OCc1ccc(Cl)c(Cl)c1
CATEGORY: no (0)
--
MOLECULE: O=C(CCn1c(=O)oc2ccccc21)Sc1ccc(Cl)cc1Cl
CATEGORY: no (0)
--
MOLECULE: O=C(Nc1ccc(Cl)cc1)O/N=C\c1ccn(-c2ccccc2)n1
CATEGORY: no (0)

*Q* Hi, sorry to bother you, what did the test record for Cc1ccc(N2C(=O)CSC2c2ccc(Cl)c(Cl)c2)cc1Cl (stereo not given) ?
*A* no (0)

*Q* Hey, what did the test say about O=C1/C(=C/c2ccc(C(F)(F)F)cc2)COc2ccccc21 ?
*A* no (0)

*Q* # outcome recorded in this test, key = S=C(Nc1cc(Cl)c(Cl)cc1Cl)Nc1ccccc1Br
*A* no (0)

*Q* Hey, what did the test say about CC1C/C(=N/Nc2ccc(Br)cc2)c2cc(Cl)ccc2S1 (stereo not given) ?
*A* yes (1)

*Q* What classification did S=C(NNc1ccccc1)Nc1cc(Cl)ccc1Cl end up with in this test?
*A* no (0)

*Q* // outcome(item) with item = Cc1c(S(=O)(=O)c2ccc(Cl)cc2)csc1C(=O)NNc1cccc(Cl)c1
*A* no (0)

*Q* Given Cc1ccc(S(=O)(=O)Nc2ccc(Oc3ccc(F)cc3)cc2)cc1 , state the outcome it received in this test.
*A* no (0)
